Ref: ChEMBL document CHEMBL1159219

List of Activity values.
# test-target: DNA topoisomerase 2-alpha (Homo sapiens, UniProt P11388)
# Sequence (P11388 whole entry, the tested form may be a part): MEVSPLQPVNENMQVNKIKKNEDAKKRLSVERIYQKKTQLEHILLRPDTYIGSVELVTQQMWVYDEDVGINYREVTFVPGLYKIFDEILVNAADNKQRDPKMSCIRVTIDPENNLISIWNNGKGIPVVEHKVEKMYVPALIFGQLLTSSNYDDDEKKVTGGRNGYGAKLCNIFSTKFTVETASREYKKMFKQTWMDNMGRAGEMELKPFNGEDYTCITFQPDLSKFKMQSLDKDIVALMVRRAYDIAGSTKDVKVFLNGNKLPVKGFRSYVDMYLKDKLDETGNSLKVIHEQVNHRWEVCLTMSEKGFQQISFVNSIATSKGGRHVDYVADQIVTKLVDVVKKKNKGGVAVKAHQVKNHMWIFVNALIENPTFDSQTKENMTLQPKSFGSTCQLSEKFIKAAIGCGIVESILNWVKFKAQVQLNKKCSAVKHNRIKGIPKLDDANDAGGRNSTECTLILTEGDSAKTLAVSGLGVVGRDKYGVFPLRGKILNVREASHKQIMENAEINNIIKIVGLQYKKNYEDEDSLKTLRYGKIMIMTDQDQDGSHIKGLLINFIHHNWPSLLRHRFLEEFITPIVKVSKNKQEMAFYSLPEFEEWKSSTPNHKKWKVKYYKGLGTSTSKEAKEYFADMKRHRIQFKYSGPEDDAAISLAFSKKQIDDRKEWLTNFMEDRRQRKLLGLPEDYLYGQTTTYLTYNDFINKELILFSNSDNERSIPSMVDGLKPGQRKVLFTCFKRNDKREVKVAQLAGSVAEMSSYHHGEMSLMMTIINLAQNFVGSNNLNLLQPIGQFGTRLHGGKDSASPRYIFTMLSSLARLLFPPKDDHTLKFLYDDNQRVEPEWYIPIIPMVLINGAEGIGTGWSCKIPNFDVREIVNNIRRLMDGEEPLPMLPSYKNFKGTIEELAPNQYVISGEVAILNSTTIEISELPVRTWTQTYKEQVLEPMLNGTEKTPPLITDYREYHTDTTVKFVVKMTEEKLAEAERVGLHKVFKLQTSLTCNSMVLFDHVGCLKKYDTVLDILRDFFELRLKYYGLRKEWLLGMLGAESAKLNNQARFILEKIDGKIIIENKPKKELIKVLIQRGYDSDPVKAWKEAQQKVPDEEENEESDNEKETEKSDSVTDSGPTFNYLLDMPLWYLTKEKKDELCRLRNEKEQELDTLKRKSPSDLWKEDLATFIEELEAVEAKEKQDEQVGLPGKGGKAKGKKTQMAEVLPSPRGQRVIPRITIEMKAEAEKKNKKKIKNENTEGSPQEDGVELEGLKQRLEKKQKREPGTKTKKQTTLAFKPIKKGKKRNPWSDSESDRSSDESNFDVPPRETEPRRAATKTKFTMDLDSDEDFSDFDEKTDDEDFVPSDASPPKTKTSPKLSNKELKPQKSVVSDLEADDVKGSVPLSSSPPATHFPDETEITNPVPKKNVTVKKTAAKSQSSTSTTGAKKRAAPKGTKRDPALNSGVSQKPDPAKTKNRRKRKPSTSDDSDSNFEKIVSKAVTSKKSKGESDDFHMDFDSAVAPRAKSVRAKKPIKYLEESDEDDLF
# assay-name: Enhancement of human DNA topoisomerase 2-mediated Escherichia coli pUC8 DNA cleavage assessed as production of linear DNA at 100 ug/ml after 30 mins by agarose gel electrophoresis relative to total DNA
quantity: Activity (%)

INSERT INTO results (record_smiles, quantity, result_number) VALUES
  ('O=c1c(O)c(-c2ccc(O)cc2)oc2cc(O)cc(O)c12', 'Activity', 8.3),
  ('COc1cc(O)c2c(=O)c(-c3ccc(O)cc3)coc2c1', 'Activity', 9.2),
  ('O=c1c(O)c(-c2ccc(O)c(O)c2)oc2cc(O)cc(O)c12', 'Activity', 11.5),
  ('O=c1c(-c2ccc(O)cc2)coc2cc(O)cc(O)c12', 'Activity', 16.2),
  ('O=c1cc(-c2ccc(O)cc2)oc2cc(O)cc(O)c12', 'Activity', 8.7);

---

# test-target: DNA topoisomerase 2-alpha (Homo sapiens)
# assay-name: Enhancement of human DNA topoisomerase 2-mediated Escherichia coli pUC8 DNA cleavage after 30 mins by agarose gel electrophoresis
# Set-up: concentration or dose not given beside the values
quantity: Activity

INSERT INTO measurements (compound, quantity, result) VALUES
  ('O=c1cc(-c2ccccc2)oc2cccc(O)c12', 'Activity', '< 50%'),
  ('O=c1c(O)c(-c2ccc(O)cc2)oc2cc(O)cc(O)c12', 'Activity', '60%'),
  ('O=c1c(O)c(-c2ccc(O)cc2O)oc2cc(O)cc(O)c12 [MORIN]', 'Activity', '< 50%'),
  ('O=c1cc(-c2ccc(O)cc2)oc2cc(O)cc(O)c12', 'Activity', '60%'),
  ('O=c1c(O)c(-c2ccc(O)c(O)c2)oc2cc(O)ccc12 [FISETIN]', 'Activity', '< 50%'),
  ('COc1cc(O)c2c(=O)c(-c3ccc(O)cc3)coc2c1', 'Activity', '60%'),
  ('O=c1cc(-c2ccccc2)oc2ccc(O)cc12', 'Activity', '< 50%'),
  ('O=c1c(O)c(-c2ccc(O)c(O)c2)oc2cc(O)cc(O)c12 [QUERCETIN]', 'Activity', '60%');

---

# test-target: UniProt P11388
# assay-name: Enhancement of human DNA topoisomerase 2-mediated Escherichia coli pUC8 DNA cleavage assessed as production of linear DNA at 100 ug/ml after 30 mins by agarose gel electrophoresis relative to control
quantity: Activity

INSERT INTO results (record_smiles, test_target, result_number) VALUES
  ('COc1cc(O)c2c(=O)c(-c3ccc(O)cc3)coc2c1', 'UniProt P11388', 1.7),
  ('O=c1c(O)c(-c2ccc(O)cc2)oc2cc(O)cc(O)c12', 'UniProt P11388', 1.6),
  ('O=c1c(-c2ccc(O)cc2)coc2cc(O)cc(O)c12', 'UniProt P11388', 3.1),
  ('O=c1cc(-c2ccc(O)cc2)oc2cc(O)cc(O)c12', 'UniProt P11388', 1.6),
  ('O=c1c(O)c(-c2ccc(O)c(O)c2)oc2cc(O)cc(O)c12', 'UniProt P11388', 2.2);

---

# test-target: DNA topoisomerase 2-alpha (Homo sapiens, UniProt P11388)
# assay-name: Inhibition of human DNA topoisomerase 2 catalytic domain-mediated knotted bacteriophage P4Virl dell0 DNA unknotting up to 100 uM by agarose gel electrophoresis
Active and inactive are the calls of the source. The rule behind the calls is not given here.
quantity: Activity

INSERT INTO assay_data (record_smiles, test_target, quantity, result) VALUES
  ('COc1cc(O)c2c(=O)c(-c3ccc(O)cc3)coc2c1', 'DNA topoisomerase 2-alpha (Homo sapiens, UniProt P11388)', 'Activity', 'inactive'),
  ('O=c1c(O)c(-c2ccccc2)oc2ccccc12', 'DNA topoisomerase 2-alpha (Homo sapiens, UniProt P11388)', 'Activity', 'inactive'),
  ('C[C@@H]1O[C@@H](OC[C@H]2O[C@@H](Oc3c(-c4ccc(O)c(O)c4)oc4cc(O)cc(O)c4c3=O)[C@H](O)[C@@H](O)[C@@H]2O)[C@H](O)[C@H](O)[C@H]1O', 'DNA topoisomerase 2-alpha (Homo sapiens, UniProt P11388)', 'Activity', 'inactive'),
  ('O=c1cc(-c2ccccc2)oc2cc(O)ccc12', 'DNA topoisomerase 2-alpha (Homo sapiens, UniProt P11388)', 'Activity', 'inactive'),
  ('O=c1cc(-c2ccccc2)oc2ccccc12', 'DNA topoisomerase 2-alpha (Homo sapiens, UniProt P11388)', 'Activity', 'inactive'),
  ('O=c1c(O)c(-c2ccc(O)cc2)oc2cc(O)cc(O)c12', 'DNA topoisomerase 2-alpha (Homo sapiens, UniProt P11388)', 'Activity', 'inactive'),
  ('O=c1cc(-c2ccccc2)oc2ccc(O)cc12', 'DNA topoisomerase 2-alpha (Homo sapiens, UniProt P11388)', 'Activity', 'inactive'),
  ('O=c1c(-c2ccc(O)cc2)coc2cc(O)ccc12', 'DNA topoisomerase 2-alpha (Homo sapiens, UniProt P11388)', 'Activity', 'inactive'),
  ('O=c1cc(-c2ccc(O)cc2)oc2cc(O)cc(O)c12', 'DNA topoisomerase 2-alpha (Homo sapiens, UniProt P11388)', 'Activity', 'inactive'),
  ('O=c1c(-c2ccc(O)c(O)c2)coc2cc(O)ccc12', 'DNA topoisomerase 2-alpha (Homo sapiens, UniProt P11388)', 'Activity', 'inactive'),
  ('O=c1cc(-c2ccccc2)oc2cccc(O)c12', 'DNA topoisomerase 2-alpha (Homo sapiens, UniProt P11388)', 'Activity', 'inactive'),
  ('Oc1cc(O)c2c(c1)O[C@H](c1ccc(O)c(O)c1)[C@@H](O)C2', 'DNA topoisomerase 2-alpha (Homo sapiens, UniProt P11388)', 'Activity', 'inactive'),
  ('O=c1c(O)c(-c2ccccc2)oc2cc(O)cc(O)c12', 'DNA topoisomerase 2-alpha (Homo sapiens, UniProt P11388)', 'Activity', 'inactive');
